// note: pKi values for UniProtKB P43114 were reported in different studies
Sequence (P43114 whole entry): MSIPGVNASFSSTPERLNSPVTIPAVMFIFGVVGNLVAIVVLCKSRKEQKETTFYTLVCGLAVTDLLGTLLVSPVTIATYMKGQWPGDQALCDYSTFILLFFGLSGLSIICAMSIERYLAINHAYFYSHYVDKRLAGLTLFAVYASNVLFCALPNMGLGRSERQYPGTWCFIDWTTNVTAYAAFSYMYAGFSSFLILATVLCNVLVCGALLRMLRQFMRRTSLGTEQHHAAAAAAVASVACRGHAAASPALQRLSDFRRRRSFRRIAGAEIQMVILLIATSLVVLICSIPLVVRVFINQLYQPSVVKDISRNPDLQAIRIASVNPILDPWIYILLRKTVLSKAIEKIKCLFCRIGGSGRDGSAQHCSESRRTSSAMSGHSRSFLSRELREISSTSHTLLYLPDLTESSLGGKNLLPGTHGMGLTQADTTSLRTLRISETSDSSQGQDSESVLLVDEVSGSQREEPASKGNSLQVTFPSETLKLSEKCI
pKi: −log10 of the molar value.
reported-metric: pKi

{"given-smiles": "O=C(NC[C@H]1CC[C@H](C(=O)O)CC1)c1cc(C(F)(F)F)cc2ccn(Cc3ccc4ncccc4c3)c12", "assay-target": "UniProtKB P43114", "numeric-readout": 8.55}
{"given-smiles": "O=C(NCCC[C@H](NC(=O)c1cccc(Cl)c1)C(=O)N[C@H]1CCC[C@H]1C(=O)O)OCc1ccccc1", "assay-target": "UniProtKB P43114", "numeric-readout": 8.89}
{"given-smiles": "O=C(/C=C/c1ccccc1O)N[C@@H](CCCNC(=O)OCc1ccccc1)C(=O)N[C@H]1CCC[C@H]1C(=O)O", "assay-target": "UniProtKB P43114", "numeric-readout": 9.04}
{"given-smiles": "C[C@H](NC(=O)c1cccc2ccn(Cc3ccc(Cl)cc3)c12)c1ccc(C(=O)NS(=O)(=O)CCCO)cc1", "assay-target": "UniProtKB P43114", "numeric-readout": 7.51}
{"given-smiles": "O=C(NC[C@H]1CC[C@H](C(=O)O)CC1)c1cc(C(F)(F)F)cc2ccn(Cc3cnc4ccccc4c3)c12", "assay-target": "UniProtKB P43114", "numeric-readout": 8.52}
{"given-smiles": "CCc1cccc(/C=C/c2c(Br)ccc(=O)n2CCc2ccc(C(=O)O)cc2)c1", "assay-target": "UniProtKB P43114", "numeric-readout": 8.36}
{"given-smiles": "O=C(O)c1ccc(CCn2c(CN3CCc4ccc(F)cc43)c(Cl)cc(Cl)c2=O)cc1", "assay-target": "UniProtKB P43114", "numeric-readout": 7.96}
{"given-smiles": "O=C(NC[C@H]1CC[C@H](C(=O)O)CC1)c1cc(Cl)cc2ccn(CCOc3ccc(Cl)cc3)c12", "assay-target": "UniProtKB P43114", "numeric-readout": 8.89}
{"given-smiles": "CN(Cc1c(Cl)cc(Cl)c(=O)n1CCc1ccc(C(=O)O)cc1)c1cccc(C(F)(F)F)c1", "assay-target": "UniProtKB P43114", "numeric-readout": 8.48}
